Source: ChEMBL document CHEMBL4392861

tested target: Hypoxia-inducible factor 1-alpha (Homo sapiens)
measurement notes: Inhibition of hypoxia-induced HIF1alpha transcriptional activity in human Hep3B cells after 24 hrs in hypoxic condition by HRE-dependent dual luciferase reporter gene assay
measurement type: IC50 (µM)
# value in µM; strip the unit string

Any idea what its IC50 is? The compound is C[C@H]1[C@H](C)CC[C@]2(C(=O)OCCn3nnnc3-c3ccccc3)CC[C@]3(C)C(=CC[C@@H]4[C@@]5(C)CC[C@H](O)C(C)(C)[C@@H]5CC[C@]43C)[C@H]12
18.1

Another: C[C@H]1[C@H](C)CC[C@]2(C(=O)OCCNc3nnn[nH]3)CC[C@]3(C)C(=CC[C@@H]4[C@@]5(C)CC[C@H](O)C(C)(C)[C@@H]5CC[C@]43C)[C@H]12
8.5

----------
Below, each of the molecules is paired with its reported IC50 value.
tested target: Hypoxia-inducible factor 1-alpha (Homo sapiens)
measurement notes: Inhibition of hypoxia-induced HIF1alpha transcriptional activity in human Hep3B cells after 24 hrs in hypoxic condition by HRE-dependent dual luciferase reporter gene assay
# value in µM; strip the unit string

Here is how some molecules turned out for IC50.
molecular string	units text	IC50
C[C@H]1[C@H](C)CC[C@]2(C(=O)OCCn3nnnc3-c3ccc(Cl)cc3)CC[C@]3(C)C(=CC[C@@H]4[C@@]5(C)CC[C@H](O)C(C)(C)[C@@H]5CC[C@]43C)[C@H]12	µM	76.4
C[C@H]1[C@H](C)CC[C@]2(C(=O)OCCCn3nnnc3-c3ccc4c(c3)OCO4)CC[C@]3(C)C(=CC[C@@H]4[C@@]5(C)CC[C@H](O)C(C)(C)[C@@H]5CC[C@]43C)[C@H]12	µM	83

Any idea what its IC50 is? The molecule is CC(=O)O[C@H]1CC[C@]2(C)[C@H]3CC=C4[C@@H]5[C@@H](C)[C@H](C)CC[C@]5(C(=O)Nc5nnn[nH]5)CC[C@@]4(C)[C@]3(C)CC[C@H]2C1(C)C
4.7

----------
tested target: Hypoxia-inducible factor 1-alpha (Homo sapiens, UniProt Q16665)
Sequence (Q16665 whole entry): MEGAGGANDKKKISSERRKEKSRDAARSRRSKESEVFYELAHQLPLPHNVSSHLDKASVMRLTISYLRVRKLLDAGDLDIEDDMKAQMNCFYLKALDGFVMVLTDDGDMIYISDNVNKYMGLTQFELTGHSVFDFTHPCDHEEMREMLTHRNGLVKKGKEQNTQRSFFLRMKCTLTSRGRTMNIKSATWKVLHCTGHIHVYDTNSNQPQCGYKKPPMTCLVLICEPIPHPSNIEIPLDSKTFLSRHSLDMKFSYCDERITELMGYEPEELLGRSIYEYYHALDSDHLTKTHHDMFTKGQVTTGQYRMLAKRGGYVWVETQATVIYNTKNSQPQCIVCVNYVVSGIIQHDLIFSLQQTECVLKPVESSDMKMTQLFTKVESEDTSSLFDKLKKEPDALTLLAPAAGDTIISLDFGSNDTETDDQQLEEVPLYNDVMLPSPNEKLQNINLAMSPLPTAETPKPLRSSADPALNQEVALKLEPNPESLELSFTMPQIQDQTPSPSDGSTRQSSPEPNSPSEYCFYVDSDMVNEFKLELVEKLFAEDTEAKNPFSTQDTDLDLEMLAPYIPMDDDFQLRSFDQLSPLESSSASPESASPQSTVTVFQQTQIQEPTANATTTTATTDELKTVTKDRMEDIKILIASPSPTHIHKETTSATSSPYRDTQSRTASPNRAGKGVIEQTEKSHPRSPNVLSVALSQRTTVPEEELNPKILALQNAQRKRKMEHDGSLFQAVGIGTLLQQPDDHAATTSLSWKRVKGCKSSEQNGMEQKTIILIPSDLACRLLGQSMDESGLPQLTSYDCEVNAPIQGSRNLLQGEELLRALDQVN
measurement notes: Inhibition of hypoxia-induced HIF1alpha transcriptional activity in human Hep3B cells after 24 hrs in hypoxic condition by HRE-dependent dual luciferase reporter gene assay
So basically: is IC50 under 20 µM? Then label 1. Not under? Then label 0.

molecule	tested target	class
C[C@H]1[C@H](C)CC[C@]2(C(=O)O)CC[C@]3(C)C(=CC[C@@H]4[C@@]5(C)CC(=C\c6ccc(Cl)cc6)/C(=N\NC(=N)N)C(C)(C)[C@@H]5CC[C@]43C)[C@H]12	Hypoxia-inducible factor 1-alpha (Homo sapiens, UniProt Q16665)	label 1
C[C@H]1[C@H](C)CC[C@]2(C(=O)OCn3ncn(-c4ccccc4)c3=O)CC[C@]3(C)C(=CC[C@@H]4[C@@]5(C)CC[C@H](O)C(C)(C)[C@@H]5CC[C@]43C)[C@H]12	Hypoxia-inducible factor 1-alpha (Homo sapiens, UniProt Q16665)	label 0
C[C@H]1[C@H](C)CC[C@]2(C(=O)OCCCNc3ccc(-c4nnn[nH]4)cc3)CC[C@]3(C)C(=CC[C@@H]4[C@@]5(C)CCC(=O)C(C)(C)[C@@H]5CC[C@]43C)[C@H]12	Hypoxia-inducible factor 1-alpha (Homo sapiens, UniProt Q16665)	label 0

Okay, next one:
Item C[C@H]1[C@H](C)CC[C@]2(C(=O)OCCCNc3ccc(-c4nnn[nH]4)cc3)CC[C@]3(C)C(=CC[C@@H]4[C@@]5(C)CC[C@H](O)C(C)(C)[C@@H]5CC[C@]43C)[C@H]12 : IC50 beneath 20 µM, strictly?
label 0
